- ASSAY_TARGET: Amine oxidase [flavin-containing] B (Homo sapiens)
- Sequence (P27338 whole entry): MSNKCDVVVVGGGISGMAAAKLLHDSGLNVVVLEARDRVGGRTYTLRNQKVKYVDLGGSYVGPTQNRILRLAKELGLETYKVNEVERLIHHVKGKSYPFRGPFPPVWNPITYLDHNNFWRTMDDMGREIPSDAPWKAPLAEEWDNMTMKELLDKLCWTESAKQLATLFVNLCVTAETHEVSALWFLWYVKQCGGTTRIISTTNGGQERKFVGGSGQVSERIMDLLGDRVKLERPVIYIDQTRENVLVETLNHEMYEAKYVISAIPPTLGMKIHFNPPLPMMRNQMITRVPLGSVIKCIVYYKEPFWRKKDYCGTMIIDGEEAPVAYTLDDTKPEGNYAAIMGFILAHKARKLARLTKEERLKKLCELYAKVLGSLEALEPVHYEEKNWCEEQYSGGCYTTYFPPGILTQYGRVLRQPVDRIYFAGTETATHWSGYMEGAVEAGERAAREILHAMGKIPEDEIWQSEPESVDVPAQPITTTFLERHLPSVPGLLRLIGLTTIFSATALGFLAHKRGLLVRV
- TEST_DESCRIPTION: Inhibition of human recombinant MAO-B using p-tyramine as substrate assessed as production of H2O2 incubated for 15 mins prior to substrate addition at 60 uM measured after 20 mins by microplate fluorescence reader analysis
PARAMETER_MEASURED: INH

>>> df
                                   compound      result
0  COc1ccc(C2=NN(C(=O)CN3CCOCC3)C(c3ccccc3O)C2)cc1 (stereo not given)  Not Active
1  O=C(Cn1ccnc1)N1N=C(c2ccc(F)cc2)CC1c1ccccc1O (stereo not given)  Not Active
2  COc1ccc(C2=NN(C(=O)CN3CCCCC3)C(c3cc(Cl)ccc3O)C2)cc1 (stereo not given)  Not Active
3  COc1ccc(C2=NN(C(=O)Cn3ccnc3)C(c3ccccc3O)C2)cc1 (stereo not given)  Not Active

Moving on to another compound below.
Query: Retrieve INH measured for CC1=NN(C(=O)CN2CCC(O)CC2)C(c2cc(Br)cc(Br)c2O)C1 (stereo not given) and print it.
Response: Not Active

====

Below is a list of entries, each paired with its recorded Ratio IC50 value.
- Species: Homo sapiens
- TEST_DESCRIPTION: Selectivity index, ratio of IC50 for human recombinant MAO-B to IC50 for human recombinant MAO-A

Some compounds with known Ratio IC50 results, for comparison:
In [3]: df
Out[3]:
                                   compound  parameter_measured  result
0  O=C(CN1CCOCC1)N1N=C(c2ccccc2)CC1c1ccccc1O (stereo not given)          Ratio IC50     2.6
1  Cc1ccc(C2=NN(C(=O)CN3CCOCC3)C(c3cc(Cl)ccc3O)C2)cc1 (stereo not given)          Ratio IC50     2.2
2  O=C(CN1CCOCC1)N1N=C(c2ccc(Cl)cc2)CC1c1ccccc1O (stereo not given)          Ratio IC50     1.5
3  CC1=NN(C(=O)CN2CCC(O)CC2)C(c2cc(Br)cc(Br)c2O)C1 (stereo not given)          Ratio IC50     4.8
4  O=C(Cn1ccnc1)N1N=C(c2ccccc2)CC1c1ccccc1O (stereo not given)          Ratio IC50       1
5  Cc1ccc(C2=NN(C(=O)CBr)C(c3cc(Cl)ccc3O)C2)cc1 (stereo not given)          Ratio IC50    11.5
6  Cc1ccc(C2=NN(C(=O)CN3CCOCC3)C(c3ccccc3O)C2)cc1 (stereo not given)          Ratio IC50       3
7  O=C(CN1CCCCC1)N1N=C(c2ccc(Cl)cc2)CC1c1ccccc1O (stereo not given)          Ratio IC50     5.5
8  COc1ccc(C2=NN(C(=O)CN3CCCCC3)C(c3ccccc3O)C2)cc1 (stereo not given)          Ratio IC50     4.7

Query: Retrieve Ratio IC50 measured for O=C(CN1CCCCC1)N1N=C(c2ccc(Cl)cc2)CC1c1cc(Cl)ccc1O (stereo not given) and print it.
Response: 7.3

====

- Species on record: Homo sapiens
- TEST_DESCRIPTION: Selectivity index, ratio of IC50 for human recombinant MAO-B to IC50 for human recombinant MAO-A
Below is a list of entries, each paired with its recorded Ratio IC50 value.
Just the number, please, no unit attached.

Some compounds with known Ratio IC50 results, for comparison:
In [3]: df
Out[3]:
                                   compound  result_number
0  O=C(CN1CCCCC1)N1N=C(c2ccc(F)cc2)CC1c1cc(Cl)ccc1O (centres undefined)           16.1
1  Cc1ccc(C2=NN(C(=O)CN3CCCCC3)C(c3ccccc3O)C2)cc1 (centres undefined)              4
2  O=C(CN1CCOCC1)N1N=C(c2ccc(F)cc2)CC1c1cc(Cl)ccc1O (centres undefined)            1.2
3  O=C(CN1CCOCC1)N1N=C(c2ccc(Cl)cc2)CC1c1cc(Cl)ccc1O (centres undefined)            1.8
4  CC1=NN(C(=O)CN2CCCCC2)C(c2cc(Br)cc(Br)c2O)C1 (centres undefined)            6.4

Query: Retrieve Ratio IC50 measured for COc1ccc(C2=NN(C(=O)CN3CCOCC3)C(c3ccccc3O)C2)cc1 (centres undefined) and print it.
Response: 2.5

Query: Retrieve Ratio IC50 measured for O=C(CN1CCNCC1)N1N=C(c2ccc(F)cc2)CC1c1cc(Cl)ccc1O (centres undefined) and print it.
Response: 24.5

Query: Retrieve Ratio IC50 measured for Cc1ccc(C2=NN(C(=O)Cn3ccnc3)C(c3cc(Cl)ccc3O)C2)cc1 (centres undefined) and print it.
Response: 0.27

Query: Retrieve Ratio IC50 measured for O=C(CN1CCCCC1)N1N=C(c2ccccc2)CC1c1ccccc1O (centres undefined) and print it.
Response: 5.3

Query: Retrieve Ratio IC50 measured for Cc1ccc(C2=NN(C(=O)CN3CCCCC3)C(c3cc(Cl)ccc3O)C2)cc1 (centres undefined) and print it.
Response: 3.9

Query: Retrieve Ratio IC50 measured for O=C(Cn1ccnc1)N1N=C(c2ccc(F)cc2)CC1c1ccccc1O (centres undefined) and print it.
Response: 2.3

Query: Retrieve Ratio IC50 measured for CC1=NN(C(=O)CN2CCC(CO)CC2)C(c2cc(Br)cc(Br)c2O)C1 (centres undefined) and print it.
Response: 1.2

Query: Retrieve Ratio IC50 measured for CC1=NN(C(=O)CN2CCCCC2)C(c2cc(Cl)ccc2O)C1 (centres undefined) and print it.
Response: 5.3
